450 nm light absorption listing for selected binders.
tested target: T1, hOX40-EC-His (human, UniProt P43489 29-214)
T1 construct: extracellular domain; bought protein; also called recombinant human OX40 antigen protein; human OX40 extracellular segment antigen; not shown: 6 His label
T1 sequence (looked up): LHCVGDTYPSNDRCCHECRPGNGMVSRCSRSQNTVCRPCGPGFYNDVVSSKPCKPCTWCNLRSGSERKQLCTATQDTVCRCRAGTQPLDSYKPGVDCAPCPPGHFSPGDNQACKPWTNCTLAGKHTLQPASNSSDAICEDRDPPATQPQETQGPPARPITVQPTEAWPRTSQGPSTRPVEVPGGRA
assay comment: ELISA, supernatant stoste, coated OX40 (CK60)
result type: 450 nm light absorption (OD450)

binder: 20D2-12 (antibody, V domains shown, hybridoma antibody, tested as culture supernatant) VH: QVQLVESGGGLVKPGGSLRLSCAASGFTFSDYYMSWIRQAPGRGLEWISYISGSDSTIYYEDSVMGRFTISRDNAKNSLYLQMNSLRAEDTAVYYCARDRDVYGYSGYGYFDYWGQGTLVTVSS VL: EIVLTQSPGTLSLSPGERATLSCRASQSVSSRYLAWYQQKPGQAPRLLIYGASNRATGMPDRFSGSGSGTDFTLTISRLEPEDFAVYYCQQYGSSPITFGQGTRLEIKR
result type: 450 nm light absorption
measured value: 3.81
//
binder: 17D5-11 (antibody, V domains shown, hybridoma antibody, tested as culture supernatant) VH: QVQLQESGPGLVKPSETLSLTCAVSGGSINSTNWWSWVRQPPGKGLEWIGEIYHSGSTNYNPSLKSRVTISVDKSKNQFSLKLSSVTAADTAVYYCARGGAVALDYWGQGTLVTVSS VL: EIVLTQSPGPLSLSPGDRATLSCRASQTVSSSYLAWYLQKPGQAPRLLIYGASIRATGIPDRFSGSGSGTDFTLTISRLEPEDFAVYYCQQYGNSPITFGQGTRLEIKR
result type: 450 nm light absorption
measured value: 2.46
//
binder: 48D10-5 (antibody, V domains shown, hybridoma antibody, tested as culture supernatant) VH: QVQLVQSGAEVKKPGASMKVSCKASGYTFANFGINWVRQAPGQGLEWMGWISAYNGYTNYAQQFQGRITMTTDTSTSTAYMELRSLRSDDTAIYYCVIWFGELLSFDYWGQGTLVTVSS VL: DIQMTQFPSSLSASVGDRVTITCRASQDISNYLAWFQQKPGKAPKSLIYAASSLQSGVPSKFSGNGFGTDFTFPLSRMQPEDFASSYCQQYNNYTFTFGRGTKVEIKR
result type: 450 nm light absorption
measured value: 2.45
//
binder: 28E3-4 (antibody, V domains shown, hybridoma antibody, tested as culture supernatant) VH: QVQLQESGPGLVKPSGTLSLTCAVSGGSISRSNWWTWVRQSPGKGLEWIGEIYHSGNTNYNPSLKSRVTISLDKSKNQFSLKLSSVTAADTAVYYCASSGSLYMDVWGKGTTVTVSS VL: DIQMTQSPSSLSASVGDRVTISCRASQSTSSYLNWYQQKPGKAPRLLIYGASSLQSGVPSRFSGSGSGTDFILTISSLQPEDFATYYCQQSYSIPITFGQGTRLEIKR
result type: 450 nm light absorption
measured value: 2.27
//
binder: 24B9-10 (antibody, V domains shown, hybridoma antibody, tested as culture supernatant) VH: QVQLQESGPGLVKPSGTLSLTCAVSGGSISSSNWWTWVRQPPGKGLEWIGEIYHSGSTNYNPSLKSRVTISVDKSKNQFSLKLSSVTAADTAVYYCARTGPIVTTEYWGQGTLVTVSS VL: EIVLTQSPGTLSLSPGERATLSCRASQSVSSGYLAWYQQKPGQAPRLLIYGASIRATGIPDRFSGSGSGTDFTLTISRLEPEDFALYYCQQYGSSPLTFGGGTKVEIKR
result type: 450 nm light absorption
measured value: 2.19
